Pre-emergence action against ZEAMX in % overview
- Test system: Zea mays (ZEAMX)
- Assay type: in vivo
- recordedConditions: pre-emergence, 320 g/ha, crop plant compatibility, in comparison to untreated controls
- Text: Seeds of monocotyledonous and dicotyledonous weed plants and crop plants are placed in plastic or organic planting pots and covered with soil. […] After about 3 weeks, the effect of the preparations is scored visually in comparison with untreated controls as percentages. […]
measureName: Pre-emergence action against ZEAMX in % (%)

[[record]]
compound = "COC(=O)CNC(=O)COc1nn(-c2ccccn2)c(-c2ccc(F)nc2)c1F"
tgt = "Zea mays (ZEAMX)"
resultvalue = 0

[[record]]
compound = "C[C@@H](Oc1nn(-c2ccnc(Cl)c2)c(-c2ccc(F)nc2)c1Br)C(=O)O"
tgt = "Zea mays (ZEAMX)"
resultvalue = 10

[[record]]
compound = "COC(=O)[C@H](C)NC(=O)COc1nn(-c2ccnc(Cl)c2)c(-c2ccc(F)nc2)c1Br"
tgt = "Zea mays (ZEAMX)"
resultvalue = 20

[[record]]
compound = "CCOC(=O)COc1nn(-c2ncccc2F)c(-c2ccc(F)nc2)c1I"
tgt = "Zea mays (ZEAMX)"
resultvalue = 0

[[record]]
compound = "O=C(O)CNC(=O)COc1nn(-c2ccnc(F)c2)c(-c2ccc(F)nc2)c1Br"
tgt = "Zea mays (ZEAMX)"
resultvalue = 0

[[record]]
compound = "COC(=O)CNC(=O)COc1nn(-c2ccccn2)c(-c2ccc(F)nc2)c1C1CC1"
tgt = "Zea mays (ZEAMX)"
resultvalue = 0

[[record]]
compound = "COC(=O)CCOC(=O)COc1nn(-c2ccccn2)c(-c2ccc(F)nc2)c1F"
tgt = "Zea mays (ZEAMX)"
resultvalue = 10

[[record]]
compound = "CCOC(=O)C(Oc1nn(-c2ccccn2)c(-c2ccc(F)nc2)c1Br)C(C)C (centres unmarked)"
tgt = "Zea mays (ZEAMX)"
resultvalue = 20


---

Post-emergence action against ZEAMX in %: recorded values
- System: Zea mays (ZEAMX)
- Assay type: in vivo
- recordedConditions: crop plant compatibility, 320 g/ha, effect vs untreated controls
measureName: Post-emergence action against ZEAMX in % (%)

[[record]]
molecule = "Cc1ncccc1-n1nc(OCC(=O)O)c(Br)c1-c1cncc(F)c1 [II-38]"
measurename = "Post-emergence action against ZEAMX in %"
unitlabel = "%"
resultvalue = 0

[[record]]
molecule = "COc1cccnc1-n1nc(OCC(=O)O)c(Cl)c1-c1ccc(F)nc1 [Example I-329]"
measurename = "Post-emergence action against ZEAMX in %"
unitlabel = "%"
resultvalue = 0

[[record]]
molecule = "CCOC(=O)COc1nn(-c2ccccn2)c(-c2ccc(F)nc2)c1C1CC1(F)F (centres unmarked) [Example I-387]"
measurename = "Post-emergence action against ZEAMX in %"
unitlabel = "%"
resultvalue = 0

[[record]]
molecule = "Cc1ncccc1-n1nc(OCC(=O)OCc2ccccn2)c(Br)c1-c1cncc(F)c1 [II-39]"
measurename = "Post-emergence action against ZEAMX in %"
unitlabel = "%"
resultvalue = 20

[[record]]
molecule = "CCOC(=O)COc1nn(-c2ccccn2)c(-c2ccc(Cl)nc2)c1Br [Example I-239]"
measurename = "Post-emergence action against ZEAMX in %"
unitlabel = "%"
resultvalue = 20

[[record]]
molecule = "O=C(O)C1CCN(C(=O)COc2nn(-c3ccccn3)c(-c3ccc(F)nc3)c2Br)CC1 [Example I-62]"
measurename = "Post-emergence action against ZEAMX in %"
unitlabel = "%"
resultvalue = 20

[[record]]
molecule = "COC(=O)C=CC(C)NC(=O)COc1nn(-c2ccccn2)c(-c2ccc(F)nc2)c1Br (centres unmarked) [Example I-345]"
measurename = "Post-emergence action against ZEAMX in %"
unitlabel = "%"
resultvalue = 10

[[record]]
molecule = "COC(=O)CCOC(=O)COc1nn(-c2ccnc(F)c2)c(-c2ccc(F)nc2)c1Br [III-27]"
measurename = "Post-emergence action against ZEAMX in %"
unitlabel = "%"
resultvalue = 10

[[record]]
molecule = "COC(=O)CNC(=O)COc1nn(-c2ncccc2C(F)(F)F)c(-c2cncc(F)c2)c1Br [Example I-205]"
measurename = "Post-emergence action against ZEAMX in %"
unitlabel = "%"
resultvalue = 0

[[record]]
molecule = "O=C(O)COc1nn(-c2ccnc(F)c2)c(-c2ccc(F)nc2)c1Br [III-02]"
measurename = "Post-emergence action against ZEAMX in %"
unitlabel = "%"
resultvalue = 20

[[record]]
molecule = "O=C(O)COc1nn(-c2nc(F)ccc2F)c(-c2ccc(F)nc2)c1C1CC1 [Example I-302]"
measurename = "Post-emergence action against ZEAMX in %"
unitlabel = "%"
resultvalue = 10

[[record]]
molecule = "CCOC(=O)COc1nn(-c2ncccc2F)c(-c2ccnc(F)c2)c1Br [Example I-136]"
measurename = "Post-emergence action against ZEAMX in %"
unitlabel = "%"
resultvalue = 20

[[record]]
molecule = "O=C(CSc1nn(-c2ccccn2)c(-c2cncc(F)c2)c1Br)NC1CC1 [Example I-201]"
measurename = "Post-emergence action against ZEAMX in %"
unitlabel = "%"
resultvalue = 20

[[record]]
molecule = "O=C(O)COc1nn(-c2ncccc2F)c(-c2ccnc(F)c2)c1Br [Example I-139]"
measurename = "Post-emergence action against ZEAMX in %"
unitlabel = "%"
resultvalue = 10

[[record]]
molecule = "O=C(O)C1CCN(C(=O)COc2nn(-c3ccccn3)c(-c3cncc(F)c3)c2Br)C1 (racemic) [Example I-63]"
measurename = "Post-emergence action against ZEAMX in %"
unitlabel = "%"
resultvalue = 10

[[record]]
molecule = "COC(=O)COc1nn(-c2ncccc2F)c(-c2ccnc(F)c2)c1Br [Example I-130]"
measurename = "Post-emergence action against ZEAMX in %"
unitlabel = "%"
resultvalue = 20

[[record]]
molecule = "CCOC(=O)C[S+]([O-])c1nn(-c2ccccn2)c(-c2cncc(F)c2)c1Cl (centres unmarked) [Example I-150]"
measurename = "Post-emergence action against ZEAMX in %"
unitlabel = "%"
resultvalue = 0


All values here come from patent US20240041042A1.
